TARGET_OR_SYSTEM: human glucocorticoid receptor (GR) (Homo sapiens (Human))
METHOD_SUMMARY: GRE Antagonist Assay (ChagoK1 18:7:2 s4/GRE reporter cells pre-stimulated with dexamethasone)
Type: cell-based
STUDY_CONDITIONS: ChaGo-K-1; at 1 μM; relative to full antagonist effect of Mifepristone (RU486); read-out: TA antagonist Observed max Effect at 1 μM (%)
Listed here: items and their measured Emax at 1 µM.
Your answer should be a plain number; it is taken to be in %.

CC(C)[C@H](NC(=O)C(C)(F)F)[C@H](Oc1ccc2c(cnn2-c2ccc(=O)n(C)c2)c1)c1ccc(OC(F)F)cc1
62
CC(C)[C@H](NC(=O)C(C)(F)F)[C@H](Oc1ccc2c(cnn2-c2ccc(=O)n(C)c2)c1)c1cc(F)cc(F)c1
53

Input: Request - read-out Emax at 1 µM | tested on human glucocorticoid receptor (GR) (Homo sapiens (Human)) | compound `CC(C)[C@H](NC(=O)C(C)(F)F)[C@H](Oc1ccc2c(cnn2-c2ccc(=O)n(C)c2)c1)c1cc(F)cc(Cl)c1`
Output: 58

====

Here, each record is paired with measured TA agonist pEC50 data.
TARGET_OR_SYSTEM: human glucocorticoid receptor (GR) (Homo sapiens (Human), UniProt P04150)
Sequence (P04150 whole entry): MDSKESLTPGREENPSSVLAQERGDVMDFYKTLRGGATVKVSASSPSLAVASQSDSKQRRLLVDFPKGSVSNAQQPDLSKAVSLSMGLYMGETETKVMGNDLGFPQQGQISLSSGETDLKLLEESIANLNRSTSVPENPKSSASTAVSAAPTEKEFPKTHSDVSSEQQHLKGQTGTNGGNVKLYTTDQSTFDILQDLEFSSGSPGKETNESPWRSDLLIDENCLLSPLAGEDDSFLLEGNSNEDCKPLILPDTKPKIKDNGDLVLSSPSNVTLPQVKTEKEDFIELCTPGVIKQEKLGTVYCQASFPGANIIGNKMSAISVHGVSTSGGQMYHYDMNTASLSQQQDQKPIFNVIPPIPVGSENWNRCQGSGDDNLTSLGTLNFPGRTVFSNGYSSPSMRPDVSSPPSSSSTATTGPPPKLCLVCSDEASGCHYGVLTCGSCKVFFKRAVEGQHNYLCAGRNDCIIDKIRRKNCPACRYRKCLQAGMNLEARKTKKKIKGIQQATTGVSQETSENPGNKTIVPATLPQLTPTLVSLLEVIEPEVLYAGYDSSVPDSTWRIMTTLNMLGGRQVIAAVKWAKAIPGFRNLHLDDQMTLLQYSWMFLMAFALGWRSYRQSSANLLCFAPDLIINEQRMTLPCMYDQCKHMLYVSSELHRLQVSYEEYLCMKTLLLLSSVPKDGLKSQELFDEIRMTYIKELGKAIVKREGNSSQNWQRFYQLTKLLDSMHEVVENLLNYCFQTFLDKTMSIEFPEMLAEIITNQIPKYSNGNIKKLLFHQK
METHOD_SUMMARY: GRE Agonist Assay (ChagoK1 18:7:2 s4/GRE MMTV-GRE-LacZ reporter cell line)
Type: cell-based
STUDY_CONDITIONS: transactivation in agonist mode, ChagoK1 GRE-LacZ reporter cells, 24 hours
I only need the number, thanks.

# annotated cases, reported TA agonist pEC50 shown
CC(C)[C@H](NC(=O)C(F)(F)F)[C@H](Oc1ccc2c(cnn2-c2ccc(=O)n(C)c2)c1)c1cc(F)cc(Cl)c1
8.8
CC(C)[C@H](NC(=O)C(F)(F)F)[C@H](Oc1ccc2c(cnn2-c2ccc(=O)n(C)c2)c1)c1ccc(Cl)c(F)c1
8.4
CC(C)[C@H](NC(=O)C(C)(F)F)[C@H](Oc1ccc2c(cnn2-c2ccc(=O)n(C)c2)c1)c1cc(F)cc(F)c1
8.6
CC(C)[C@H](NC(=O)C(C)(F)F)[C@H](Oc1ccc2c(cnn2-c2ccc(=O)n(C)c2)c1)c1ccccc1
8.0
Cc1cc2c(cnn2-c2ccc(=O)n(C)c2)cc1O[C@H](c1ccccc1)[C@@H](NC(=O)C(C)(F)F)C(C)C
8.4

Input: // returns reported TA agonist pEC50 for input `CC(C)[C@H](NC(=O)C(F)(F)F)[C@H](Oc1ccc2c(cnn2-c2ccc(=O)n(C)c2)c1)c1ccc(Cl)cc1`
Output: 8.3

====

TARGET_OR_SYSTEM: human glucocorticoid receptor (GR) (Homo sapiens (Human), UniProt P04150)
METHOD_SUMMARY: GRE Agonist Assay (ChagoK1 18:7:2 s4/GRE MMTV-GRE-LacZ reporter cell line)
Format: cell-based
STUDY_CONDITIONS: transactivation in agonist mode, ChagoK1 GRE-LacZ reporter cells, 24 hours
Label class 1 for high-side TA agonist pEC50 (at or above 8) and class 0 for low-side TA agonist pEC50 (below it).

Worked cases, answers included:
CC(C)[C@H](NC(=O)C(F)(F)F)[C@H](Oc1cc2cnn(-c3ccc(=O)n(C)c3)c2cc1Cl)c1ccccc1
class 1
CC(C)[C@H](NC(=O)C(C)(F)F)[C@H](Oc1ccc2c(cnn2-c2ccc(=O)n(C)c2)c1)c1cc(Cl)cc(Cl)c1
class 0
CC(C)[C@H](NC(=O)C(C)(F)F)[C@H](Oc1cc2cnn(-c3ccc(=O)n(C)c3)c2cc1Cl)c1ccccc1
class 1

Input: State whether the measured TA agonist pEC50 reaches 8, counting equality as reaching it, for `CC(C)[C@H](NC(=O)C(F)(F)F)[C@H](Oc1ccc2c(cnn2-c2ccc(=O)n(C)c2)c1)c1cc(Cl)cc(Cl)c1`
Output: class 0

Input: Evaluate `CC(C)[C@H](NC(=O)C(F)(F)F)[C@H](Oc1ccc2c(cnn2-c2ccc(=O)n(C)c2)c1)c1cccc(Cl)c1` : TA agonist pEC50 at minimum 8?
Output: class 1
